B1: glmS ribozyme (parent)
chain: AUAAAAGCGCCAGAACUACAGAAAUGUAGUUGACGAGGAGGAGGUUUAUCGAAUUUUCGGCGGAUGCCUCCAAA

variants of: B1; experiment: self-cleavage kobs at 10000 uM GlcN6P; higher = faster cleavage; RNA array; conditions: with glucosamine-6-phosphate
This sample holds only a part of the variants without activity.
measured-attribute: self-cleavage kobs at 10000 uM GlcN6P

stdin: // self-cleavage kobs at 10000 uM GlcN6P lookup, key: A39G G44C
stdout: 0.000394 s⁻¹
